target: High affinity nerve growth factor receptor (Homo sapiens, UniProt P04629)
Sequence (P04629 whole entry): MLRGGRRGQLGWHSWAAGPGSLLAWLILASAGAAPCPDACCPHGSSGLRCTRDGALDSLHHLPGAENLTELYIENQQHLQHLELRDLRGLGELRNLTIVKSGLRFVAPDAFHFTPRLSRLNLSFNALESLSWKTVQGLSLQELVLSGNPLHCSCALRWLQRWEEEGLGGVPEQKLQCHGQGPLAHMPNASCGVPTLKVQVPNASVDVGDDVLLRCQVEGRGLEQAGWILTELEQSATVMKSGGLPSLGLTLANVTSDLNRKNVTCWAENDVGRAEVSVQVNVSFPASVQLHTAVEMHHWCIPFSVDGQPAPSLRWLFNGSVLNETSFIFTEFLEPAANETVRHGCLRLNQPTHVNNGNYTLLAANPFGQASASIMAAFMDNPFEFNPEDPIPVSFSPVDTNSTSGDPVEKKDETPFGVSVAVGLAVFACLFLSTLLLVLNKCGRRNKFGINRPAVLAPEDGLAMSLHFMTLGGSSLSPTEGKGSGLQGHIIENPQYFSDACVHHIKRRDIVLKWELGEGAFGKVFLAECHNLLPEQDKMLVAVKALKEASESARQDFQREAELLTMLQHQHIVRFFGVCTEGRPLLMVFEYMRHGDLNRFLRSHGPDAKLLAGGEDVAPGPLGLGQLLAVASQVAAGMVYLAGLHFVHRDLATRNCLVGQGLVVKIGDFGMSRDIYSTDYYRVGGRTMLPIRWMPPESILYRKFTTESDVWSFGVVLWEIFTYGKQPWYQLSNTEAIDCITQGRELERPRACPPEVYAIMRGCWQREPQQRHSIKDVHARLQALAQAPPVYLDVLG
Result Type: IC50

Which IC50 reading was recorded for the molecule NC(=O)CCNC(=O)c1cnc2[nH]nc(N3CCC[C@@H]3c3cc(F)ccc3F)c2c1 [US12391687, Example 15] ?
< 0.01 µM

---

A set of molecules tested on NT-3 growth factor receptor (Homo sapiens, UniProt Q16288), with measured IC50:

In [3]: df
Out[3]:
                                     smiles  result_type  recorded_value
0  O=C(Nc1cnc2[nH]nc(N3C[C@@H](F)C[C@@H]3c3cc(F)ccc3F)c2c1)c1ccc(N2CC[C@H](O)C2)nc1         IC50         < 10 nM

Now for the molecule whose IC50 we want.
Which IC50 reading was recorded for the molecule Fc1ccc(F)c([C@H]2C[C@H](F)CN2c2n[nH]c3ncc(-c4cnn(C5CNC5)c4)cc23)c1 ?
< 1 nM
